Molecular target: Histamine H3 receptor (Homo sapiens, UniProt Q9Y5N1)
Sequence (Q9Y5N1 whole entry): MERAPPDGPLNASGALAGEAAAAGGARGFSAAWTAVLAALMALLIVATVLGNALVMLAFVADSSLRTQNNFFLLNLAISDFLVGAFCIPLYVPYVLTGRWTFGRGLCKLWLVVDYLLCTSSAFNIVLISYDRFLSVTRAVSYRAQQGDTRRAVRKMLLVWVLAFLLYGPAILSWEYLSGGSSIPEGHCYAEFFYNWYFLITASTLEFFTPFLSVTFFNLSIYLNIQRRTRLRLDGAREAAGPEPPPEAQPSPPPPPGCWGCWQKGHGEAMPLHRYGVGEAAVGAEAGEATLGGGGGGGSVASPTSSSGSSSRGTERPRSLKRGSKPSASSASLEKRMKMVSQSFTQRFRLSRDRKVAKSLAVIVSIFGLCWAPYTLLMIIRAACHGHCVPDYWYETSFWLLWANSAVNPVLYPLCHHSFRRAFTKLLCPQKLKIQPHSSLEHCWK
Test: Agonist activity at human histamine H3 receptor expressed in sf9 cell membrane co-expressing mammalian Galphai2 and Gbeta1gamma2 incubated for 90 mins by [35S]GTPgammaS binding assay
EC50 values, listed per item
Reply numerically in nM, unit not repeated.

Here are 3 molecules together with their reported answers.
{"molecule": "N#C/N=C(/NCCCCc1c[nH]cn1)NCCSc1ccccc1", "EC50 [nM]": 720}
{"molecule": "CN/C(=N\\C#N)NC[C@@H]1CC[C@H](c2c[nH]cn2)C1 (racemic)", "EC50 [nM]": 547}
{"molecule": "CN/C(=N\\C#N)NC[C@@H]1CC[C@H](c2c[nH]cn2)C1", "EC50 [nM]": 212}

For this molecule ( CC(C)CN/C(=N/C#N)NC[C@@H]1CC[C@H](c2c[nH]cn2)C1 (racemic) ), measured EC50 is 858

Quick note, EC50 for N#C/N=C(\NC[C@@H]1CC[C@H](c2c[nH]cn2)C1)NC1CC1 (racemic) landed at 1530

Measured EC50, CC(C)CN/C(=N/C#N)NC[C@H]1CC[C@H](c2c[nH]cn2)C1 (racemic) : 578

EC50 recorded for this molecule, CN/C(=N\C#N)NC[C@@H]1CC[C@@H](c2c[nH]cn2)C1 , is 9200

# EC50 (molecule: CN/C(=N\C#N)NC[C@H]1CC[C@H](c2c[nH]cn2)C1 (racemic) ) is 370

Record CN/C(=N\C#N)NC[C@H]1CC[C@H](c2c[nH]cn2)C1 . Reported EC50: 994

Field EC50 (entry Cc1nc[nH]c1CCN ) reads 12400

====

Molecular target: Histamine H2 receptor (Homo sapiens)
Sequence (P25021 whole entry): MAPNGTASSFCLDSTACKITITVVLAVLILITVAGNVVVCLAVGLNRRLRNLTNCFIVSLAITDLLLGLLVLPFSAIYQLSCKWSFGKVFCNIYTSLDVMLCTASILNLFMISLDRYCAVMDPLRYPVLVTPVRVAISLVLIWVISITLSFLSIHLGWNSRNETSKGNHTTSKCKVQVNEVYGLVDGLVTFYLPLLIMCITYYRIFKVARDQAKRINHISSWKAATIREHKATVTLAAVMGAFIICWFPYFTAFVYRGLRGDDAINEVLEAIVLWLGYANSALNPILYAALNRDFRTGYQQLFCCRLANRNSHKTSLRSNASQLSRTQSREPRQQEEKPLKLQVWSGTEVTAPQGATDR
Assay: Antagonist activity at human histamine H2 receptor expressed in sf9 cell membrane co-expressing Gsalphas assessed as inhibition of histamine-induced [35S]GTPgammaS binding incubated for 90 mins
Type: functional
Parameter Kb: see the listing below.

Field Kb (entry N#C/N=C(/NCCSc1ccccc1)NC[C@@H]1CC[C@@H](c2c[nH]cn2)C1 ) reads > 10 µM

====

Molecular target: Histamine H3 receptor (Homo sapiens)
Test: Antagonist activity at human histamine H3 receptor expressed in sf9 cell membrane co-expressing mammalian Galphai2 and Gbeta1gamma2 assessed as inhibition of histamine-induced [35S]GTPgammaS binding incubated for 90 mins
Type: functional
Could you mark each record true (1) if its Kb falls strictly under 200 nM, and false (0) if it equals or exceeds it?

Look over these answered cases.
{"compound": "N#C/N=C(/NCCCc1ccccc1)NC[C@H]1CC[C@H](c2c[nH]cn2)C1 (racemic)", "targetOfAssay": "Histamine H3 receptor (Homo sapiens)", "assignedClass": "false (0)"}
{"compound": "N#C/N=C(/NCCSc1ccccc1)NC[C@H]1CC[C@H](c2c[nH]cn2)C1", "targetOfAssay": "Histamine H3 receptor (Homo sapiens)", "assignedClass": "false (0)"}
{"compound": "NC[C@@H]1CC[C@H](c2c[nH]cn2)C1 (racemic)", "targetOfAssay": "Histamine H3 receptor (Homo sapiens)", "assignedClass": "true (1)"}
{"compound": "N#C/N=C(/NCCCc1ccccc1)NC[C@@H]1CC[C@H](c2c[nH]cn2)C1 (racemic)", "targetOfAssay": "Histamine H3 receptor (Homo sapiens)", "assignedClass": "true (1)"}

# check: Kb < 200 nM for N#C/N=C(/NCCOc1ccccc1)NC[C@@H]1CC[C@H](c2c[nH]cn2)C1 (racemic)
false (0)

Decide: Kb of N#C/N=C(/NCCSc1ccccc1)NC[C@@H]1CC[C@H](c2c[nH]cn2)C1 strictly below 200 nM?
false (0)

is_below(Kb, 200 nM) for N#C/N=C(/NCCOc1ccccc1)NC[C@H]1CC[C@H](c2c[nH]cn2)C1 (racemic) ?
false (0)

Please determine if NC[C@H]1CC[C@H](c2c[nH]cn2)C1 (racemic) is below 200 nM in terms of Kb.
true (1)
